target.under.test: human GPR119 receptor (Homo sapiens, UniProt Q8TDV5, S329A/T327A)
Construct: N-terminal leader […]; expressed in transfected cells
Sequence (Q8TDV5 with tags, fused parts or gaps T327A/S329A): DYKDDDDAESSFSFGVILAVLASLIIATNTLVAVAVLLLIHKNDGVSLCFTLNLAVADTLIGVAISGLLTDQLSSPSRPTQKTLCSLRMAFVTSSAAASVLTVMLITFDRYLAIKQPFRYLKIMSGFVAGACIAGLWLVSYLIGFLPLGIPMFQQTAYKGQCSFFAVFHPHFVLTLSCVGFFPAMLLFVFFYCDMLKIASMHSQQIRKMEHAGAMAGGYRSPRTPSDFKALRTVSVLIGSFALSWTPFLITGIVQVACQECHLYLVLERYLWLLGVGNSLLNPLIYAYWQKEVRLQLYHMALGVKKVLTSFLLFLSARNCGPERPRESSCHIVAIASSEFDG
experiment.description: cAMP assay (LANCE cAMP-384) in HEK293 cells stably expressing mutant human GPR119 receptor
Format: cell-based
measurement.parameters: the 33rd table; read-out: EC50
The following compounds are listed with their measured EC50 values.

compound	EC50
CC(C)[C@@H](N)COC(=O)N1CCC(ON=C2CCN(c3ccc(S(C)(=O)=O)cc3F)CC2)CC1	> 10 µM
CN(C)CCCCOC(=O)N1CCC(ON=C2CCN(c3ccc(S(C)(=O)=O)cc3F)CC2)CC1	> 10 µM
CS(=O)(=O)c1ccc(N2CCC(=NOC3CCN(C(=O)OCC4CNCCO4)CC3)CC2)c(F)c1 (stereo not shown)	> 10 µM
CS(=O)(=O)c1ccc(N2CCC(=NOC3CCN(C(=O)OC4CCNC4)CC3)CC2)c(F)c1 (stereo not shown)	> 10 µM
CC(C)[C@H](N)COC(=O)N1CCC(ON=C2CCN(c3ccc(S(C)(=O)=O)cc3F)CC2)CC1	> 10 µM
CC(N)COC(=O)N1CCC(ON=C2CCN(c3ccc(S(C)(=O)=O)cc3F)CC2)CC1 (stereo not shown) [Example 64-34]	> 10 µM
CN(C)CCCOC(=O)N1CCC(ON=C2CCN(c3ccc(S(C)(=O)=O)cc3F)CC2)CC1	> 10 µM
CCN(CC)CCCOC(=O)N1CCC(ON=C2CCN(c3ccc(S(C)(=O)=O)cc3F)CC2)CC1	> 10 µM
CS(=O)(=O)c1ccc(N2CCC(=NOC3CCN(C(=O)OCCN4CCOCC4)CC3)CC2)c(F)c1	> 10 µM
CC(CN(C)C)OC(=O)N1CCC(ON=C2CCN(c3ccc(S(C)(=O)=O)cc3F)CC2)CC1 (stereo not shown)	> 10 µM
CS(=O)(=O)c1ccc(N2CCC(=NOC3CCN(C(=O)O[C@H]4CNC(=O)C4)CC3)CC2)c(F)c1	> 10 µM
CS(=O)(=O)c1ccc(N2CCC(=NOC3CCN(C(=O)OCCn4cccc4)CC3)CC2)c(F)c1	0.461 µM
CS(=O)(=O)c1ccc(N2CCC(=NOC3CCN(C(=O)OCCC4CCCCC4)CC3)CC2)c(F)c1	0.35 µM
CC(OC(=O)N1CCC(ON=C2CCN(c3ccc(S(C)(=O)=O)cc3F)CC2)CC1)C1CC1 (stereo not shown)	0.09 µM
CS(=O)(=O)c1ccc(N2CCC(=NOC3CCN(C(=O)OC4CNC4)CC3)CC2)c(F)c1	> 10 µM
CS(=O)(=O)c1ccc(N2CCC(=NOC3CCN(C(=O)OCC4CCC4)CC3)CC2)c(F)c1	0.036 µM
CC(N)COC(=O)N1CCC(ON=C2CCN(c3ccc(S(C)(=O)=O)cc3F)CC2)CC1 (stereo not shown) [Example 64-35]	> 10 µM
CN1CCCC(OC(=O)N2CCC(ON=C3CCN(c4ccc(S(C)(=O)=O)cc4F)CC3)CC2)C1 (stereo not shown)	> 10 µM
CCOCCOC(=O)N1CCC(ON=C2CCN(c3ccc(S(C)(=O)=O)cc3F)CC2)CC1	1.28 µM
